System: OVCAR-3 ovarian
experiment_summary: NCI tumour cell line growth inhibition, 48 h
# GI50 listing for each entry below

| molecule | GI50 |
| --- | --- |
| CN(Cc1cnc(N)nc1N)c1ccc(C(=O)O)cc1 | > 100000 nM |
| O=C(Cn1c(=O)c(-c2ccccc2)nc2ccccc21)c1ccc(Cl)cc1 | 46600 nM |
| O=C(/C=C1\C(=O)N(Cc2ccc([N+](=O)[O-])cc2)c2ccccc21)c1ccc(OCCN2CCCCC2)cc1 | 1250 nM |
| Cc1c(C)c2c(c(C)c1NC(=O)/C=C\C(=O)O)CCC(C)(CCCC(C)CCCC(C)CCCC(C)C)O2 (stereo unspecified) | 1610 nM |
| O=C(/C=C/c1ccccc1)c1c[nH]c2ccccc2c1=O | 2030 nM |
| Cc1cc2cccnc2c2ncccc12 | 1750 nM |

----------
System: U251 CNS
experiment_summary: NCI tumour cell line growth inhibition, 48 h

| molecule | TGI |
| --- | --- |
| C=C(C)C#CC(O)(C(=O)OC1CCN(C)CC1)C(C)C (stereo unspecified) | > 100 µM |
| CC(C)(C)[Si](C)(C)OCC1CCC(n2cnc3c(=O)[nH]cnc32)O1 (stereo unspecified) | > 100 µM |
| N#Cc1nc(C2CC2)oc1N | > 100 µM |
| CCCN(CCCN)/[N+]([O-])=N\O | > 100 µM |
| CC(C)(C)OC(=O)NC1CC=CCC1NC(=O)OC(C)(C)C (stereo unspecified) | > 100 µM |
| COc1ccc(NS(=O)c2ccc(-c3ccccc3)cc2)cc1 (stereo unspecified) | > 100 µM |
| COc1cccc(/C(CC(O)(C(F)(F)F)C(F)(F)F)=N\N(C)C)c1 | > 100 µM |
| CC1SC(c2ccccc2)N(Nc2c3ccccc3nc3ccccc23)C1=O (stereo unspecified) | > 100 µM |
| O=C(/C=C/C12c3ccccc3C(c3ccccc31)C1C(=O)N(c3ccccc3)C(=O)C12)c1ccc(Cl)cc1 (stereo unspecified) | 4.82 µM |
| Cc1cc(=O)n(-c2ccccc2)c(=O)o1 | > 100 µM |
| C=C1C(=O)O[C@H]2[C@H]1CC/C(Cn1cc(CNCCc3c[nH]c4ccc(Cl)cc34)nn1)=C\CC[C@@]1(C)O[C@@H]21 | 20.9 µM |
| COC(=O)/C=C/c1cnc2c(c1)oc(=O)n2CCc1ccccn1 | > 100 µM |
| CCNC(C)(C)C(SS)c1ccc(Br)cc1 (stereo unspecified) | > 100 µM |
| CCOC(=O)c1cc(/C=C/C(C)=C/C(=O)OC)oc1-c1ccccc1 | > 100 µM |
| CCn1nc(C)c2c1C(=O)NC(C)C(=O)N2 (stereo unspecified) | > 100 µM |
| C/C(=N/NC(=O)c1ccncc1)c1ccc(NC(=O)C(=O)Nn2c(=S)[nH]c3ccccc3c2=O)cc1 | > 100 µM |
| COC(=O)C1=C(OC(=O)/C(=C/c2ccc(Cl)cc2Cl)c2ccc(Cl)cc2Cl)C(C(=O)OC)[C@@]2(O)[C@@H](C(=O)OC)[C@H](C)C[C@@H]1[C@@H]2C(=O)OC (stereo partly specified) | > 100 µM |
| COc1ccc(C[n+]2c3ccccc3n3c4ccc(N)cc4ccc32)c(OC)c1OC | 14.5 µM |
| C[C@@]12c3c4ccc(C=O)c3Oc3ccc(C=O)c(c31)Oc1c(C=O)ccc(c12)O4 | > 100 µM |
| COC(=O)C1CC(=O)CCC1c1ccccc1 (stereo unspecified) | > 100 µM |
| O=C(CCCn1c(=O)c2sc3ccccc3c2n2nnc(-c3ccccc3)c12)NCCc1cnc[nH]1 | 2.24 µM |
